# Tested on: ACHN renal
# method: NCI-60 one-dose screen, 48 h
# measurement.parameters: 10 µM unless noted
About 83,000 compounds went through this panel and 20% of them were active in at least one assay; those are over-represented in the sample as a whole. Calls of active or inactive are those of the source. Rule for the calls: active = growth percent below 10; inactive = the rest.
Returns: one label drawn from active, inactive

Solved entries:
O=P(Oc1ccc(Cl)cc1)(N1CC1)N1CC1 = inactive
C1CCC([PH+](C2CCCCC2)C2CCCCC2[PH+](C2CCCCC2)C2CCCCC2)CC1.O=C(C1[CH-]CCCC1)C1CCCC[N-]1.[Au] (centres undefined) = active
CC[CH2][Sn]([Cl])([Cl])[CH2]CC = inactive
CCOP(=O)(Nc1ccc2c(c1)/C(=N/NC(N)=S)c1ccccc1-2)OCC = inactive

QUERY: Dear colleague, could you share the recorded outcome for COC(C(=O)[C@@H](O)[C@@H](C)O)[C@@H]1Cc2cc3cc(O[C@H]4C[C@@H](O[C@H]5C[C@@H](O)[C@H](O)C(C)O5)[C@H](O)C(C)O4)c(C)c(O)c3c(O)c2C(=O)[C@H]1O[C@H]1C[C@@H](O[C@H]2C[C@@H](O[C@H]3C[C@@H](O)[C@@H](O)C(C)O3)[C@@H](O)C(C)O2)[C@H](O)C(C)O1 (some centres undefined) when you have a moment?
RESULT: active

QUERY: Dear colleague, could you share the recorded outcome for `CCC(=O)Nc1ccc(Cl)c(Cl)c1` when you have a moment?
RESULT: inactive

---

# System: TK-10 renal
# method: NCI-60 one-dose screen, 48 h (100 = growth as untreated, 0 = no growth, -100 = all killed)
# measurement.parameters: 10 µM unless noted
Compounds without any hit were thinned out: in the full panel of roughly 83,000, 20% have a hit.
Reported growth values for the following molecules.
Please give a number only; it is taken to be in %.

Answered cases to consult:
OCCCCCNC1CCCCC1 = 86.5
CC1(C)CN1P(=O)(N1CC1(C)C)N1CC1(C)C (stereo not drawn) = 118

QUERY: Item under review: `Cc1ccc(S(=O)(=O)F)cc1C(=O)O` . Reported growth?
RESULT: 107

---

# Test system: HT29 colon
# method: NCI-60 one-dose screen, 48 h
# measurement.parameters: 10 µM unless noted
The panel holds about 83,000 compounds, 20% with a hit somewhere; the sample as a whole holds those more often. Activity calls are given as the source filed them. Rule for the calls: active = growth percent below 10; inactive = the rest.
Returns: one label drawn from yes (1) (active), no (0) (inactive)

C[C@]12CCc3nc(Nc4ccccc4F)sc3C1=CC[C@@H]1[C@@H]2CC[C@]2(C)C(=O)CC[C@@H]12 = no (0)
O=C(CN1CCN(C(=O)c2ccco2)CC1)Nc1ccc(Cl)cc1C(=O)c1ccccc1Cl = no (0)
CC12CC=CCC1CCC1C2CCC2(C)C(c3ccc(=O)oc3)CCC12O (stereo not drawn) = yes (1)
CC[C@]12C=CCN3CC[C@@]4(c5ccc(OC)cc5N(C)[C@H]4[C@@](O)(C(=O)OC)[C@@H]1OC(=O)CCCC[P+](c1ccccc1)(c1ccccc1)c1ccccc1)[C@@H]32 = yes (1)

QUERY: Dear colleague, could you share the recorded outcome for `CCn1nccc1NC(=O)C(=O)c1cn(Cc2ccc(F)cc2)c2cccc(OC)c12` when you have a moment?
RESULT: no (0)

QUERY: Dear colleague, could you share the recorded outcome for `ClCCN(CCCl)c1ccc(-n2cnc3c(Cl)ncnc32)cc1` when you have a moment?
RESULT: no (0)

QUERY: Dear colleague, could you share the recorded outcome for NC(=O)c1c(Br)n(C2OC(CO)C(O)C2O)c2ncnc(N)c12 (stereo not drawn) when you have a moment?
RESULT: no (0)

QUERY: Dear colleague, could you share the recorded outcome for `[Au+].[N-]=C=O.c1ccc(CN2[CH-]N(Cc3ccccc3)C(c3ccccc3)=C2c2ccccc2)cc1` when you have a moment?
RESULT: no (0)

QUERY: Dear colleague, could you share the recorded outcome for CC(=O)OC1C(OC/C2=C/C3[C@@H](C(C)C)CC=C(C)[C@@H]3CC(OC(=O)/C=C/c3cn(C)cn3)[C@]3(C)C=C[C@@]2(O)O3)OCC(O)C1O (stereo partly drawn) when you have a moment?
RESULT: yes (1)

QUERY: Dear colleague, could you share the recorded outcome for `C=CC[Se]C(=O)c1ccccc1OC(C)=O` when you have a moment?
RESULT: no (0)

QUERY: Dear colleague, could you share the recorded outcome for `COc1ccc(/C=C\c2cc(OC)c(OC)c(OC)c2)cc1OCC(=O)Nc1nc2ccc(F)cc2s1` when you have a moment?
RESULT: no (0)

QUERY: Dear colleague, could you share the recorded outcome for `CCOC(=O)[C@@H](C)C[C@H](Cc1ccccc1)NC(=O)c1csc([C@@H](C[C@H](C(C)C)N(C)C(=O)[C@H](CCC(C)C)NC(=O)[C@H]2CCCCN2C)OC(C)=O)n1` when you have a moment?
RESULT: yes (1)

QUERY: Dear colleague, could you share the recorded outcome for `CN1C(=O)C(=Cc2cn(CCCCCCn3c4ccccc4c(=O)c4ccccc43)c3ccccc23)C(=O)N(C)C1=O` when you have a moment?
RESULT: no (0)

QUERY: Dear colleague, could you share the recorded outcome for `COc1cc2c(cc1OCCCCCn1c(-c3ccco3)nc3ccccc31)N=C[C@@H]1CCCN1C2=O` when you have a moment?
RESULT: yes (1)

QUERY: Dear colleague, could you share the recorded outcome for `COC(=O)[C@H](Cc1ccccc1)NC(=O)c1csc([C@@H](C[C@H](C(C)C)N(C)C(=O)[C@@H](NC(=O)[C@H]2CCCCN2C)C2CC2)OC(C)=O)n1` when you have a moment?
RESULT: yes (1)

QUERY: Dear colleague, could you share the recorded outcome for COC1OC(CO)C(O)C(O)[CH]1[Hg][O]C(C)=O (stereo not drawn) when you have a moment?
RESULT: no (0)

QUERY: Dear colleague, could you share the recorded outcome for `CCn1c2ccccc2c2cc(C(=O)c3cccc4c3CCCN4)ccc21` when you have a moment?
RESULT: no (0)

QUERY: Dear colleague, could you share the recorded outcome for O=C1OCC2=C1C(c1ccccc1)c1cc3c(cc1N2)OCO3 (stereo not drawn) when you have a moment?
RESULT: yes (1)
